The reported measurements were obtained from the supplement of paper PMC8728848.

Give glycan array binding signal (z-score) for every item shown.
# target.entity: Glc(b1-4)Glc
# measurement.notes: glycan array binding signal (z-score within array); higher = stronger binding
# condition.parameters: glycan notation: IUPAC condensed, linker removed
Many of the other results were omitted from the sample, so the strongest signals are more common in it than they were.
Give bare numbers.

1. GST Gap3 (Streptococcus parasanguinis) (protein) MTKQLISEIYWNEIRKGENYLYGSQIKFQEDLVNFYNPQLASGKPIVTFKSRTNYQGDRHSPDLPILIQGNRYLLEYQIDAVPANSFFLQLDFFNRQAEQIESIVLRNSGESFIFPKDTFTYTLTLMSAGCQSVTYQKFMIYDINDEEKKNHIVENRYLRELLPKDLDLVKNLIEYI | -0.381
2. FaeGac (Escherichia coli) (protein) WMTGDFNGSVDIGGSITADDYRQKWEWKVGTGLNGFGNVLNDLTNGGTKLTITVTGNKPILLGRTKEAFATPVTGGVDGIPHIAFTDYEGASVVLRNPDGETNKKGLAYFVLPMKNAEGTKVGSVKVNASYAGVLGRGGVTSADGELLSLFADGLSSIFYGGLPRGSELSAGSAAAERTKLFGSLSRNDILGQIQRVNANITSLVDVAGSYRENMEYTDGTVVSAAYALGIANGQTIEATFNQAVTTSTQWSAPLNVAITYY | 2.95

# ---- query binder ----
// query Using known records, supply glycan array binding signal (z-score) for FaeGab (Escherichia coli) (protein) WMTGDFNGSVDIGGSITADDYRQKWEWKVGTGLNGFGNVLNDLTNGGTKLTITVTGNKPILLGRTKEAFATPVSGGVDGIPQIAFTDYEGASVKLRNTDGETNKGLAYFVLPMKNAEGTKVGSVKVNASYAGVFGKGGVTSADGELFSLFADGLRAIFYGGLTTTVSGAALTSGSAAAARTELFGSLSRNDILGQIQRVNANITSLVDVAGSYREDMEYTDGTVVSAAYALGIANGQTIEATFNQAVTTSTQWSAPLNVAITYY
// result 4.4
